Source of measurements: ChEMBL document CHEMBL2157924

SYSTEM TESTED: Glucagon-like peptide 1 receptor (Rattus norvegicus, UniProt P32301)
Sequence (P32301 whole entry): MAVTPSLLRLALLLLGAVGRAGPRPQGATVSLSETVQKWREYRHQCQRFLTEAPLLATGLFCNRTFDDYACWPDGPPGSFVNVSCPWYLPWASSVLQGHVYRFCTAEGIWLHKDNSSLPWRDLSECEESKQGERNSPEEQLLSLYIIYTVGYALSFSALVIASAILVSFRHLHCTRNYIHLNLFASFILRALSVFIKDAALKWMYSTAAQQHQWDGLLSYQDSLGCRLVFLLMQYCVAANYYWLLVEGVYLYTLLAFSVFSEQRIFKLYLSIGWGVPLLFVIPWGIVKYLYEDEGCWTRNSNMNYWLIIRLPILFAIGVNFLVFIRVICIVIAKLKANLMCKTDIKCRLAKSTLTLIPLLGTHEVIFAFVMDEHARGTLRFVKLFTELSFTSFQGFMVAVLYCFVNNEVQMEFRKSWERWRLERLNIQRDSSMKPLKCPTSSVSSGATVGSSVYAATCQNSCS
METHOD: Inhibition of [125I]GLP1 (7-36) amide binding to rat GLP1R expressed in HEK293 cells
pIC50: −log10 of the molar value.
REPORTED PROPERTY: pIC50

1. COc1cc([C@H]2[C@](NC(=O)c3ccc(NC(=O)OC(C)(C)C)cc3)(C(=O)O)[C@@H](c3ccc(OC(=O)C(C)C)c(OC)c3)[C@]2(NC(=O)c2ccc(NC(=O)OC(C)(C)C)cc2)C(=O)O)ccc1OC(=O)C(C)C; 5.12

1. CCCC(=O)Oc1ccc([C@H]2[C@](NC(=O)c3ccc(NC(=O)OC(C)(C)C)cc3)(C(=O)O)[C@@H](c3ccc(OC(=O)CCC)c(OC)c3)[C@]2(NC(=O)c2ccc(NC(=O)OC(C)(C)C)cc2)C(=O)O)cc1OC
2. COc1cc([C@H]2[C@](NC(=O)c3ccc(NC(=O)COCc4ccccc4)cc3)(C(=O)O)[C@@H](c3ccc(OC(=O)c4cccs4)c(OC)c3)[C@]2(NC(=O)c2ccc(NC(=O)COCc3ccccc3)cc2)C(=O)O)ccc1OC(=O)c1cccs1
3. COc1cc([C@H]2[C@](NC(=O)c3ccc(NC(=O)C4CC4)cc3)(C(=O)O)[C@@H](c3ccc(OC(=O)c4cccs4)c(OC)c3)[C@]2(NC(=O)c2ccc(NC(=O)C3CC3)cc2)C(=O)O)ccc1OC(=O)c1cccs1
4. COc1cc([C@H]2[C@](NC(=O)c3ccc(NC(=O)OC(C)(C)C)cc3)(C(=O)O)[C@H](c3ccc(OC(=O)c4cccs4)c(OC)c3)[C@@]2(NC(=O)c2ccc(NC(=O)OC(C)(C)C)cc2)C(=O)O)ccc1OC(=O)c1cccs1
Query block: Sort the compounds on pIC50; start with the lowest figure. The labels, placed in the requested order, form the answer.
Result block: 1, 4, 2, 3

----------
SYSTEM TESTED: Glucagon-like peptide 1 receptor (Rattus norvegicus)
Sequence (whole entry): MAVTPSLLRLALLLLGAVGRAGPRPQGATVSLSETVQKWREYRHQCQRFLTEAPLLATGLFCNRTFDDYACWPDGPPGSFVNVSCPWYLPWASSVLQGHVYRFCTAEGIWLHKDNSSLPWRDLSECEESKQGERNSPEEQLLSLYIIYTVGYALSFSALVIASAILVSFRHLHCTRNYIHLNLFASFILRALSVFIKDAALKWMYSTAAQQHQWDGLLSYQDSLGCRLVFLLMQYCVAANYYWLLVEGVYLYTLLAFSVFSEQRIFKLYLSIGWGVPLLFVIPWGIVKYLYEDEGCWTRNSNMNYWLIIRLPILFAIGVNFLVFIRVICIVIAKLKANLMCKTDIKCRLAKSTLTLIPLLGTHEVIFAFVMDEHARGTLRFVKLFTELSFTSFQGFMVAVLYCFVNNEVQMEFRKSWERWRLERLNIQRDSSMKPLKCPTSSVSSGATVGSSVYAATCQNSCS
METHOD: Inhibition of [125I]GLP1 (7-36) amide binding to rat GLP1R expressed in HEK293 cells relative to untreated control
Format: cell-based
Parameters: concentration or dose not given beside the values
EXPERIMENTAL SETUP: concentration not given here
REPORTED PROPERTY: inhibition

Please review the following examples before continuing.
1) CC(C)(C)OC(=O)Nc1ccc(C(=O)N[C@]2(C(=O)O)[C@H](c3cccc(OCc4ccccc4)c3)[C@@](NC(=O)c3ccc(NC(=O)OC(C)(C)C)cc3)(C(=O)O)[C@@H]2c2cccc(OCc3ccccc3)c2)cc1; < 15%
2) COc1cc([C@H]2[C@](NC(=O)c3ccc(NC(=O)OC(C)(C)C)cc3)(C(N)=O)[C@@H](c3ccc(OC(=O)c4cccs4)c(OC)c3)[C@]2(NC(=O)c2ccc(NC(=O)OC(C)(C)C)cc2)C(N)=O)ccc1OC(=O)c1cccs1; < 15%

Shift focus to the following entry.
Query block: Fill blank: measured inhibition of the molecule `CCCOc1ccc([C@H]2[C@](NC(=O)c3ccc(NC(=O)OC(C)(C)C)cc3)(C(=O)O)[C@@H](c3ccc(OCCC)cc3)[C@]2(NC(=O)c2ccc(NC(=O)OC(C)(C)C)cc2)C(=O)O)cc1` is ____.
Result block: < 15%
